# Lookup of reported growth keyed by entry
Test system: M14 melanoma
Assay: NCI-60 one-dose screen, 48 h (100 = growth as untreated, 0 = no growth, -100 = all killed)
Conditions: 10 µM unless noted
Compounds without any hit were thinned out: in the full panel of roughly 83,000, 20% have a hit.
Number only, in %; omit the unit.

As a guide, the following entries are already answered.
Query N/C(=N\C(N)=N\c1nc2ccccc2s1)c1ccncc1Cl yields growth of 32.4

Query O=C(CCn1cc[n+](CC(=O)c2ccc(-c3ccccc3)cc2)c1)Nc1cccc2cccnc12 yields growth of 82.3

Query COc1cc(-c2nc3sccn3c2-c2ccnc(S(C)(=O)=O)n2)ccc1F yields growth of 97.9

Query COc1ccc(C2CC(c3cccc(Nc4nc(Cl)nc5cc(OC)c(OC)cc45)c3)=Nc3c(N)nc(N)nc3N2)cc1 (centres undefined) yields growth of 93.5

Query NC(N)=Nc1ccc(Nc2cccc(Nc3ccc(Cl)c(C(F)(F)F)c3)c2)cn1 yields growth of 47.3

Query c1cc(-c2nc3ccc4[nH]ncc4c3c3c2CCCC3)[nH]n1 yields growth of 39.7

Query COc1ccc(/C(N)=N/C(N)=N/c2nc3ccccc3s2)cc1 yields growth of 81.4

Query Cn1cc(-c2nnc(N)nc2-c2c[nH]c3ccc(F)cc23)c2cc(F)ccc21 yields growth of 73.3

***
Query Cc1nn(-c2ccccc2)c2ncnc(N/N=C/c3ccccc3O)c12 yields growth of 0.329

Query O=C(Nc1nonc1-c1ccccc1)c1ccc(C(F)(F)F)cc1 yields growth of 71.1

Query CC1(C)CC[C@]2(C(=O)N3CCOCC3)CC[C@]3(C)C(=CC[C@@H]4[C@@]5(C)C/C(=C/c6ccco6)C(=O)C(C)(C)[C@@H]5CC[C@]43C)[C@@H]2C1 yields growth of 101

Query CCNC(=O)N1CCc2cc(OC)c(OCCc3ccc(OC)cc3)cc2C1c1ccc(OC)cc1C (centres undefined) yields growth of 20

Query Nc1nc(-c2cccc([N+](=O)[O-])c2)c(N=Nc2ccc([N+](=O)[O-])cc2Cl)s1 yields growth of 4.9

Query CCCn1cnc2c(c1=N)C(c1ccc(OC)cc1)c1sc3c(CC)cccc3c1O2 (centres undefined) yields growth of 2.9

Query C[C@@H]1C[C@H]2C(=O)O[C@@H](C)C(NC(=O)[C@H](Cc3cc(F)cc(F)c3)NC(=O)Nc3ccc(Cl)cc3F)C(=O)N3CCC[C@H]3C(=O)N3CCCC[C@H]3C(=O)N[C@@H](CO)C(=O)N2C1 (some centres undefined) yields growth of 20.7

Query Clc1nc2ccccc2nc1-c1nnc(C2CCCCC2)o1 yields growth of 94.3

---

System: IGROV1 ovarian
Assay: NCI-60 one-dose screen, 48 h (100 = growth as untreated, 0 = no growth, -100 = all killed)
Conditions: 10 µM unless noted
The panel holds about 83,000 compounds, 20% with a hit somewhere; the sample as a whole holds those more often.
Lab note: cut-off is 50%. Strictly less in growth is Fulfilled. Exactly 50% or more is Not fulfilled.

Completed entries (count: 6):
Prompt line: Record CC1(C)CC[C@]2(C(=O)N3CCOCC3)CC[C@]3(C)C(=CC[C@@H]4[C@@]5(C)C/C(=C/c6ccco6)C(=O)C(C)(C)[C@@H]5CC[C@]43C)[C@@H]2C1 : is its growth strictly below 50%?
Response line: Not fulfilled

Prompt line: Record Cc1cccc2c3c(sc12)C(c1ccc(Cl)cc1)c1c(nc(CC(=O)Nc2ccccc2)[nH]c1=O)O3 (stereo not drawn) : is its growth strictly below 50%?
Response line: Fulfilled

Prompt line: Record COc1ccc([C@H]2c3[nH]c4ccccc4c3C[C@H]3C(=O)N(C4CCN(Cc5c(Cl)cccc5Cl)CC4)CC(=O)N23)c(OC)c1 : is its growth strictly below 50%?
Response line: Not fulfilled

Prompt line: Record CCOC(=O)C(=O)CC(=O)N1C(=S)NC(=O)C1CC(C)C (stereo not drawn) : is its growth strictly below 50%?
Response line: Not fulfilled

Prompt line: Record COc1ccc(/C=N/NC2=NC3C(S2)N(C)C(=O)N3C)cc1 (stereo not drawn) : is its growth strictly below 50%?
Response line: Fulfilled

Prompt line: Record CCOC(=O)C(=O)/C(=C\c1ccc(Cl)cc1)C(=O)N1C(=S)NC(=O)C1CC(C)C (stereo not drawn) : is its growth strictly below 50%?
Response line: Not fulfilled

Please find the next molecule below.
Prompt line: Record COc1cc(OC)c(S(N)(=O)=O)cc1C(=O)/C=C/c1ccc(Cl)cc1 : is its growth strictly below 50%?
Response line: Fulfilled
